# measurement-notes: log P by HPLC on a reversed-phase column (C 18), EEC Directive 79/831 Annex V.A8
# Format: physicochemical
# study-conditions: Table 1; HPLC C 18, 40° C., 0.1% aqueous formic acid and acetonitrile; several values = mixture of 2 or more isomers
// reported logP per item
Answer with a number only.

[
  {
    "molecule": "Cn1cc(C(=O)N(Cc2cc(C3=CCCC3)ccc2Cl)C2CC2)c(C(F)F)c1",
    "logP": 4.63
  },
  {
    "molecule": "CC1CC=C(c2ccccc2C(C)N(C(=O)c2c(C(F)F)nn(C)c2F)C2CC2)CC1 (mixture of isomers)",
    "logP": 5.03
  },
  {
    "molecule": "Cn1nc(C(F)F)c(C(=O)N(Cc2ccccc2C2=CCCC2)C2CC2)c1F",
    "logP": 4.06
  },
  {
    "molecule": "CC(c1ccccc1C1=CCCCC1)N(C(=O)c1c(C(F)F)nn(C)c1F)C1CC1 (racemic)",
    "logP": 4.61
  },
  {
    "molecule": "Cn1cc(C(=O)N(Cc2cc(Cl)ccc2C2=CCCC2)C2CC2)c(C(F)F)n1",
    "logP": 4.06
  }
]

Query: Note logP for the molecule shown: Cn1nc(C(F)F)c(C(=O)N(Cc2cc(C3=CCCC3)ccc2Cl)C2CC2)c1Cl
Response: 4.82

Query: Note logP for the molecule shown: Cn1cc(C(=O)N(Cc2ccccc2C2=CCCCC2)C2CC2)c(C(F)F)n1
Response: 3.99

Query: Note logP for the molecule shown: Cn1nc(C(F)F)c(C(=O)N(Cc2cc(Cl)ccc2C2=CCCCCC2)C2CC2)c1Cl
Response: 5.54
